- ASSAY_NOTES: Cytotoxicity against human HuH5.2 cells assessed as reduction in metabolic activity after 72 hrs by MTS assay
- Assay type: toxicity, cell-based, Huh-5-2
- SETUP_CONDITIONS: HuH5.2 cells
Grouping key: CC50 at 72 h. Bins: Low: < 7 µM; Medium: ≥ 7 µM and < 100 µM; High: ≥ 100 µM

State the band of O=C(NNc1ncnc2sc3ccccc3c12)c1cnccn1
Low

State the band of O=C(NNc1ncnc2sc3c(c12)CCC3)c1nc2ccccc2[nH]1
Medium

State the band of O=C(CCN1C(=O)c2cccc3cccc(c23)C1=O)N1CCN(Cc2ccc3c(c2)OCO3)CC1
High

State the band of C/C(=N/Nc1ncnc2sc(C)c(C)c12)c1ccccc1O
Medium

State the band of O=C(NNc1ncnc2sc3c(c12)CCCC3)c1ccccc1O
Medium

State the band of O=C(NNc1ncnc2sc3c(c12)CCC3)c1cc(O)ccc1O
High

State the band of c1cnc2c(Nc3ncnc4sc5c(c34)CCCC5)cccc2c1
High

State the band of O=S(=O)(Nc1ccc(O)c(Sc2ncn[nH]2)c1)c1cccc2ccccc12
High

State the band of O=C(N/N=C\c1cccnc1)c1cc(-c2ccc3c(c2)OCO3)n[nH]1
High

State the band of CCc1sc2ncnc(N/N=C(/C)c3cc(O)ccc3O)c2c1C
High

State the band of O=C(NNc1ncnc2sccc12)c1ccccc1O
High

State the band of Cc1sc2ncnc(NNC(=O)c3cnccn3)c2c1C
Low

State the band of C/C(=N\Nc1ncnc2sc3c(c12)CCCC3)c1cc(O)ccc1O (stereo in doubt; form 2)
High

State the band of O=C(NNc1ncnc2sccc12)c1ccccn1
High

State the band of C/C(=N/Nc1ncnc2sc(Cl)c(C)c12)c1cnccn1
Low

State the band of C/C(=N\Nc1ncnc2sc3c(c12)CCCC3)c1cc2ccccc2[nH]1
Medium

State the band of CCOc1cc(C2C(C(=O)OC)=C(C)NC3=C2C(=O)CC(c2ccc(OC)c(OC)c2)C3)ccc1O (stereo not drawn)
High

State the band of CCOc1cc(C)c(S(=O)(=O)N2CCN(Cc3ccc4c(c3)OCO4)CC2)cc1C
High

State the band of O=C(NNc1ncnc2sc3c(c12)CCCC3)c1ccco1
High

State the band of O=C(NNc1ncnc2sc3c(c12)CCC3)c1ccccc1O
High

====

- Tested on: Hepatitis C virus
- ASSAY_NOTES: Antiviral activity against Hepatitis C virus genotype 1b infected in human HuH5.2 cells after 72 hrs by luciferase reporter gene assay
- Format: functional, cell-based, Hepacivirus hominis
- SETUP_CONDITIONS: Hepatitis C virus, genotype 1b, Huh-5-2, 72 h
Values of EC90 strictly less than 300 nM map to t, and values of at least 300 nM map to f.

Say whether its EC90 is strictly beneath 300 nM. Entry: O=C(NNc1ncnc2sc3c(c12)CCC3)c1cnccn1
t

Say whether its EC90 is strictly beneath 300 nM. Entry: O=C(NNc1ncnc2sc3ccccc3c12)c1cc(O)ccc1O
f

Say whether its EC90 is strictly beneath 300 nM. Entry: O=C(N/N=C\c1cccnc1)c1cc(-c2ccc3c(c2)OCO3)n[nH]1
f

Say whether its EC90 is strictly beneath 300 nM. Entry: C/C(=N/Nc1ncnc2sc(Cl)c(C)c12)c1cnccn1
t

Say whether its EC90 is strictly beneath 300 nM. Entry: C/C(=N\Nc1nc(C)nc2sc3c(c12)CCCC3)c1cnccn1
t

Say whether its EC90 is strictly beneath 300 nM. Entry: C/C(=N/Nc1ncnc2sccc12)c1cnccn1
f

Say whether its EC90 is strictly beneath 300 nM. Entry: c1ccc2[nH]c(Nc3ncnc4sc5c(c34)CCCC5)nc2c1
f

Say whether its EC90 is strictly beneath 300 nM. Entry: O=C(NNc1ncnc2sc3ccccc3c12)c1cnccn1
t

Say whether its EC90 is strictly beneath 300 nM. Entry: NNc1ncnc2sc3c(c12)CCCC3
f

Say whether its EC90 is strictly beneath 300 nM. Entry: Cc1nc(NNC(=O)c2ccccn2)c2c3c(sc2n1)CCCC3
f

Say whether its EC90 is strictly beneath 300 nM. Entry: COc1ccc(/C(C)=N/NC(=O)c2cc(O)cc(O)c2)c(OC)c1
f

====

- Tested on: Hepatitis C virus
- ASSAY_NOTES: Antiviral activity against Hepatitis C virus genotype 1b infected in human HuH5.2 cells after 72 hrs by luciferase reporter gene assay
- Type: functional, cell-based, Hepacivirus hominis
- SETUP_CONDITIONS: Hepatitis C virus, genotype 1b, Huh-5-2, 72 h
Kindly state EC50 for each of the entries shown.
The answer is to be given in µM; state only the numeric part.

// EC50 (Hepatitis C virus) for c1ccc2[nH]c(Nc3ncnc4sc5c(c34)CCCC5)nc2c1 = 55.4

// EC50 (Hepatitis C virus) for O=C(NNc1ncnc2sccc12)c1cnccn1 = 0.851

// EC50 (Hepatitis C virus) for C/C(=N/Nc1ncnc2sccc12)c1ccccc1O = 4.69

// EC50 (Hepatitis C virus) for C/C(=N\Nc1ncnc2sc3ccccc3c12)c1cc(O)ccc1O = 0.475

// EC50 (Hepatitis C virus) for c1ccc2c(Nc3ncnc4sc5c(c34)CCCC5)cccc2c1 = 32.4

// EC50 (Hepatitis C virus) for O=C(NNc1ncnc2sc3c(c12)CCC3)c1nc2ccccc2[nH]1 = 0.594

// EC50 (Hepatitis C virus) for Cc1c(Cl)sc2ncnc(NNC(=O)c3ccccn3)c12 = 0.088

// EC50 (Hepatitis C virus) for C/C(=N\Nc1ncnc2sc3c(c12)CCCC3)c1ccco1 = 18.2

// EC50 (Hepatitis C virus) for COc1ccc(-c2c3c(nc4sc5c(O)nc(C)nc5c24)CCC3)cc1 = 21

// EC50 (Hepatitis C virus) for COc1ccc(-c2c(C#N)c(SCC(N)=O)nc3c2CCCC3)cc1 = 130

// EC50 (Hepatitis C virus) for CCOc1cccc(C(=O)Nc2cc(C(=O)OC)ccc2N2CCN(CC)CC2)c1 = 38.9

// EC50 (Hepatitis C virus) for O=C(NNc1ncnc2sc3c(c12)CCCC3)c1cc(O)ccc1O = 0.502

// EC50 (Hepatitis C virus) for O=C(/C=C(/C(=O)O)c1ccccc1)Nc1ccc(N2CCN(CCO)CC2)cc1 = 65

// EC50 (Hepatitis C virus) for c1cnc2c(Nc3ncnc4sc5c(c34)CCCC5)cccc2c1 = 186

// EC50 (Hepatitis C virus) for CCOC(=O)c1cnc2c(ccc3ccccc32)c1Nc1ccc(C(=O)OC)cc1 = 10.9

// EC50 (Hepatitis C virus) for NNc1ncnc2sc3c(c12)CCCC3 = 23.1

// EC50 (Hepatitis C virus) for Cc1c(Cl)sc2ncnc(NNC(=O)c3ccccc3O)c12 = 0.159

// EC50 (Hepatitis C virus) for O=C(NNc1ncnc2sc3ccccc3c12)c1cnccn1 = 0.0723

// EC50 (Hepatitis C virus) for C/C(=N\Nc1ncnc2sc3c(c12)CCCC3)c1cnccn1 = 0.355

====

- ASSAY_NOTES: Selectivity index, ratio of CC50 for human HuH5.2 cells to EC50 for hepatitis C virus genotype 1b infected in human HuH5.2 cells
- Assay type: toxicity, cell-based
- SETUP_CONDITIONS: HuH5.2 cells, read-out: Ratio CC50/EC50
Grouping key: selectivity ratio. Bins: bin 0: < 8; bin 1: ≥ 8 and < 50; bin 2: ≥ 50

State the band of COc1ccc(OC)c(/C(C)=N/Nc2ncnc3sc4c(c23)CCCC4)c1
bin 0

State the band of C/C(=N/Nc1ncnc2sc3c(c12)CCC3)c1nc2ccccc2[nH]1
bin 1

State the band of C/C(=N/Nc1ncnc2sc(Cl)c(C)c12)c1ccccc1O
bin 2

State the band of O=C(NNc1ncnc2sc3c(c12)CCCC3)c1nc2ccccc2[nH]1
bin 1

State the band of C/C(=N\Nc1ncnc2sc3c(c12)CCC3)c1ccccc1O
bin 2

State the band of C/C(=N/Nc1ncnc2sc(Cl)c(C)c12)c1cnccn1
bin 2

State the band of C/C(=N\Nc1ncnc2sc3c(c12)CCCC3)c1cc2ccccc2[nH]1
bin 0

State the band of Cc1nc(NNC(=O)c2ccccc2O)c2c3c(sc2n1)CCCC3
bin 1

State the band of O=C(NNc1ncnc2sc3c(c12)CCCC3)c1cccs1
bin 0

State the band of O=C(NNc1ncnc2sc3c(c12)CCC3)c1ccccn1
bin 1

State the band of O=C(NNc1ncnc2sc3ccccc3c12)c1cc(O)ccc1O
bin 2

State the band of C/C(=N\Nc1ncnc2sc3ccccc3c12)c1ccccc1O
bin 2

State the band of C/C(=N/Nc1ncnc2sc(C)c(C)c12)c1cc(O)ccc1O
bin 2

State the band of O=C(NNc1ncnc2sc3c(c12)CCC3)c1cnccn1
bin 1

====

- ASSAY_NOTES: Cytotoxicity against human HuH5.2 cells assessed as reduction in metabolic activity after 72 hrs by MTS assay
- Assay type: toxicity, cell-based, Huh-5-2
- SETUP_CONDITIONS: huh-5-2, 72 h, 72 h
READOUT_KIND: CC50

The molecule C/C(=N\Nc1ncnc2sc3c(c12)CCCC3)c1cc(O)ccc1O (stereo in doubt; form 1) showed CC50 equal to > 141 µM
